Target System: human nNOS (Homo sapiens (Human))
Method: Purified NOS enzyme assay (hemoglobin capture), human nNOS
Assay type: biochemical
Measurement Parameters: human nNOS; Ki calculated from IC50, average of at least two replicates
Observation Type: Ki
The reply should consist of the numeric value with the unit placed after it.

For the record Cl.Cl.Nc1ccc2ccc(CNCCc3cccc(F)c3)cc2n1 [Compound 5, Dihydrochloride] , what value of Ki is listed for human nNOS (Homo sapiens (Human))?
493 nM

---

murine macrophage iNOS (Mus musculus (Mouse)) measurements of Ki, listed per entry.
One number for each entry, in µM.

Cl.Cl.Nc1ccc2ccc(CCNCc3cccc(F)c3)cc2n1 [Compound 6, Dihydrochloride]: 24.5
Cl.Cl.Nc1ccc2ccc(CNCCCc3cccc(F)c3)cc2n1 [Compound 9, Dihydrochloride]: 32.3
Cl.Cl.Nc1ccc2ccc(CNCCc3cccc(F)c3)cc2n1 [Compound 5, Dihydrochloride]: 9.14
Cl.Cl.Nc1ccc2ccc(CCNCCc3ccc(Cl)cc3)cc2n1 [Compound 16, Dihydrochloride]: 19.2

Look up Ki for this compound: Cl.Cl.Nc1ccc2ccc(CCNCCc3ccc(F)cc3)cc2n1 [Compound 14, Dihydrochloride]
51.2

// provenance: patent US9212144B2
